System: 786-0
measurement notes: NCI tumour cell line growth inhibition, 48 h
Calls of active or inactive are those of the source. Cut-off read from the data, not from the text of the source: active = GI50 up to about 1.1 µM and inactive = higher.
property label: GI50

# example entries with known answers
{"columns": ["compound", "GI50"],
 "data": [
  ["c1ccc2cc(CNCCOCCOCCNCc3ccc4ccccc4c3)ccc2c1", "1.57 µM (inactive)"],
  ["Cc1ccc(NC(=O)C(=O)CC(=O)c2c(C)[n+]([O-])c3ccccc3[n+]2[O-])cc1", "40.6 µM (inactive)"],
  ["C=C1C[C@@H](O)[C@@H](Br)C(C)(C)[C@]12CCC(C)(Br)C(Cl)C2 (stereo partly specified)", "> 50 µM (inactive)"],
  ["CN(C(=O)[C@@H](NC(=O)OC(C)(C)C)c1ccccc1)[C@H]1CCCC[C@@H]1N1CCCC1", "> 100 µM (inactive)"],
  ["CCOC(=O)c1c(SCCN2CCOCC2)n(-c2ccccc2)c(=S)n(-c2ccccc2)c1=O", "21.2 µM (inactive)"],
  ["CCOC(=O)c1nnc2c(C#N)c(-c3ccccc3)c(C)n2c1N", "56.1 µM (inactive)"],
  ["COC1=C(OC)C(=O)c2cc(SC)c(=O)c(SC)cc2C1=O", "17.3 µM (inactive)"],
  ["CC(CN(C)C)C(=O)c1ccccc1C(=O)O (stereo unspecified)", "24.2 µM (inactive)"]
]}

Dear colleague, could you please provide GI50 for the compounds listed below?
1. O=C1N[C@@H]2O[C@H](CNC(=O)c3cc(Br)c[nH]3)C[C@]2(O)N1.O=C1N[C@H]2O[C@H](CNC(=O)c3cc(Br)c[nH]3)C[C@@]2(O)N1
2. CC(C)(C)[Si](C)(C)Oc1ccc(C2CNC(=O)C23CCC(=O)N3Cc2ccccc2)cc1 (stereo unspecified)
3. O[C@]12c3ccccc3C1CCCCC2N1CCOCC1 (stereo partly specified)
4. CC1CC2OC(=O)C(C)C2CC2(C)C(OC3OC(CO)C(O)C(O)C3O)OCCC12 (stereo unspecified)
5. O=C1CCC(c2nc3ccccc3o2)C(=O)N1 (stereo unspecified)

Result:
> 100 µM (inactive)
18.9 µM (inactive)
> 100 µM (inactive)
> 100 µM (inactive)
> 100 µM (inactive)

Dear colleague, could you please provide GI50 for the compounds listed below?
1. ClCCCN1CCCCC1CCl (stereo unspecified)
2. O=C(O)c1ccc(N/C(=C(/C(Cl)=C(Cl)Cl)[N+](=O)[O-])n2nnc3ccccc32)cc1

Result:
["72.1 µM (inactive)", "> 100 µM (inactive)"]

---

Test system: SF-539
measurement notes: NCI tumour cell line growth inhibition, 48 h
Active and inactive are the calls of the source. Cut-off read from the data, not from the text of the source: active = GI50 up to about 1.1 µM and inactive = higher.
Please respond with reported GI50 for every item in the list.

{"columns": ["compound", "target under test", "GI50"],
 "data": [
  ["CCCCC1Cc2cc(OC)ccc2-c2nc3cc(OC)ccc3n21.CCCCC1Cc2cc(OC)ccc2-c2nc3ccc(OC)cc3n21 (stereo not given)", "SF-539", "16.1 µM (inactive)"],
  ["CCCC#CC(O)(C(=O)OC1CCN(C)CC1)C1CCCCC1 (stereo not given)", "SF-539", "> 100 µM (inactive)"],
  ["CC(C)NC(=O)OCc1c(COC(=O)NC(C)C)c(-c2cc[n+](COC(=O)C(C)(C)C)cc2)n2c1CCC2", "SF-539", "> 100 µM (inactive)"]
]}

Dear colleague, could you please provide GI50 for the compounds listed below?
1. COC(=O)C(CSSC[C@H](N/C(C)=C/C(C)=O)C(=O)OC)N/C(C)=C/C(C)=O (stereo not given in full)
2. CCCCc1c2c(nc3c1CCC/C3=C\c1ccccc1)C(=O)C(CN(C)C)CC2 (stereo not given)
3. Nc1nc(Cl)c2ncn(CCCC(c3ccccc3)P(=O)(O)O)c2n1 (stereo not given)
4. COc1ccc(/C=N/c2ccc(-c3nc4ccccc4s3)cc2)cc1OC
5. Cc1cccc(C(C)O)n1 (stereo not given)
6. CCOC(=O)C1=C(c2ccccc2)N(C(C)=O)Cc2ccccc21

Result:
["53 µM (inactive)", "20.7 µM (inactive)", "> 100 µM (inactive)", "34.8 µM (inactive)", "> 100 µM (inactive)", "16.3 µM (inactive)"]

Dear colleague, could you please provide GI50 for the compounds listed below?
1. O=C1C=C2CC[C@H]3[C@@H]4CC[C@H](OC(=O)c5cccc6cc7ccccc7nc56)[C@H]4CC[C@@H]3[C@H]2CC1
2. C=C1C[C@@H](O)[C@@H](Br)C(C)(C)[C@]12CCC(C)(Br)C(Cl)C2 (stereo not given in full)
3. CCC(C#N)N(Cc1cccc(CN(C(C)=O)C(C#N)CC)c1)C(C)=O (stereo not given)
4. c1ccc(Nc2nnc(-c3nsc4ccccc34)o2)cc1

Result:
> 100 µM (inactive)
> 50 µM (inactive)
> 100 µM (inactive)
> 100 µM (inactive)

---

Test system: SR
measurement notes: NCI tumour cell line growth inhibition, 48 h
Calls of active or inactive are those of the source. No stated cut-off is given here; in the data, active = GI50 up to about 1.1 µM and inactive = higher.
Field 'call' accepts active, inactive

Please review the entries below; each comes with its answer.
{"columns": ["compound", "class assignment"],
 "data": [
  ["NC1=Nc2ncccc2C(=O)NN1", "inactive"],
  ["CCOC(=O)c1c(SCCN2CCOCC2)n(-c2ccccc2)c(=S)n(-c2ccccc2)c1=O", "inactive"],
  ["O=C1[C@H]2ON(c3ccccc3)C(c3cccc([N+](=O)[O-])c3)[C@H]2C(=O)N1c1ccc(Cc2ccc(N3C(=O)[C@@H]4ON(c5ccccc5)C(c5cccc([N+](=O)[O-])c5)[C@@H]4C3=O)cc2)cc1 (stereo partly drawn)", "inactive"],
  ["CC(=O)OC1CCn2c1nc1c2C(=O)C=C(N2CC2)C1=O (stereo not drawn)", "active"],
  ["CCOc1ccnc2c(OC)c(C)c3nc4ccccc4nc3c12", "inactive"],
  ["O=C(O)[C@@]1(Cc2ccc(O)cc2)C[C@@H]2Cc3ccccc3N2N1", "inactive"]
]}

Ask: How did this test come out for COc1cc2c(/C=C3/C(=O)Nc4cccc(Cl)c43)c(Cl)[nH]c2cc1C ?
Result: inactive

Ask: How did this test come out for CC(=O)OCC1OC(OC2CC3C(C)(C)C(O)CC[C@]3(C)C3CCC45CC4(CC[C@H]5C(C)CC(O)C4OC4(C)C)[C@]23C)C(O)C(O)C1O (stereo partly drawn) ?
Result: inactive

---

Tested on: HCC 2998
measurement notes: NCI tumour cell line growth inhibition, 48 h
Counter-ions that a name gives are not always drawn. Calls of active or inactive are those of the source. Cut-off read from the data, not from the text of the source: active = GI50 up to about 1.1 µM and inactive = higher.
property label: GI50

# example entries with known answers
{"columns": ["compound", "GI50"],
 "data": [
  ["CC(C)[C@H]1NC(=O)[C@H]2N=C(O[C@@H]2C)[C@@H]2CCCN2C(=O)[C@H](Cc2ccccc2)NC(=O)[C@@H]2COC(=N2)[C@@H](Cc2ccccc2)NC(=O)[C@@H]2COC1=N2", "> 100 µM (inactive)"],
  ["O=C1c2cc(Br)ccc2-c2ccc3c4ccc5c6c(ccc(c7ccc1c2c73)c64)C(=O)c1cc(Br)ccc1-5", "> 100 µM (inactive)"],
  ["ClCCCN1CCCCC1CCl (configuration not stated)", "> 100 µM (inactive)"],
  ["O=C(/N=N/c1cccc(Cl)c1)NNc1cccc(Cl)c1", "14.7 µM (inactive)"],
  ["CC1=NCCc2c1[nH]c1cc(O)ccc21 [HARMALOL HYDROCHLORIDE]", "> 100 µM (inactive)"]
]}

Dear colleague, could you please provide GI50 for the compounds listed below?
1. CN(C)CCCn1c(Cc2ccc(Cl)cc2)nc2cc(C(F)(F)F)ccc21
2. O=C(c1ccccc1)c1c(C(F)(F)F)[n+]([O-])c2ccccc2[n+]1[O-]
3. O=C(NCCCCCCCCNC(=O)Nc1cccc2ccccc12)Nc1cccc2ccccc12
4. Cn1nc(-c2ccccc2)c2c(-c3ccccc3)c3cc(Cl)ccc3nc21
5. COc1cc(CC(=O)O)c([N+](=O)[O-])cc1OC
6. COC1=C(OC)C(=O)c2cc(SC)c(=O)c(SC)cc2C1=O
7. CC(C)(C)OC(=O)N/N=C(/N)c1ccccc1
8. CC1(C)CC(=O)C(CCC(=O)/C=C/c2ccccc2)C(=O)C1

Result:
1: 2 µM (inactive); 2: 1.25 µM (inactive); 3: 30.1 µM (inactive); 4: > 100 µM (inactive); 5: > 100 µM (inactive); 6: > 100 µM (inactive); 7: > 100 µM (inactive); 8: > 100 µM (inactive)

Dear colleague, could you please provide GI50 for the compounds listed below?
1. O=C(O)CCCCn1ccc(=O)[nH]c1=O
2. CCOC(=O)c1ccc(N2C(=O)/C(=C\OC)c3ccccc3C2=O)cc1
3. Cc1cc(C)c(NC(=O)/C=C/c2ccccc2)c(C)c1
4. COC(=O)C1=C(C(=O)OC)C23CC4CCC2(C(=O)C1O3)C4(C)C (configuration not stated)
5. COc1cc(=O)n2c3ccccc3n(C)c2c1C#N
6. CCSC1=C(C)N(/C=N/C(C)(C)C)CC1

Result:
1: > 100 µM (inactive); 2: 46.2 µM (inactive); 3: > 100 µM (inactive); 4: > 100 µM (inactive); 5: > 100 µM (inactive); 6: > 100 µM (inactive)

Dear colleague, could you please provide GI50 for the compounds listed below?
1. CCN(CC)Cc1ccc(Nc2c3ccccc3nc3ccccc23)cc1
2. Oc1ccc2ccccc2c1CN(Cc1c(O)ccc2ccccc12)C1CCCCC1
3. CCCCc1ccc(Nc2nc(N)c3[nH]cnc3n2)cc1

Result:
["1.08 µM (active)", "14.6 µM (inactive)", "24 µM (inactive)"]
